Measured IC50 by item
# assay-system: HIF-2α HIS TAG-PASB Domain (Homo sapiens)
# Construct: 100 nM HIF-2α HIS TAG-PASB Domain
# experiment-notes: HIF-2α Scintillation Proximity Assay (SPA)
# Format: binding
# test-conditions: read-out: Scintillation Proximity Assay IC50

Solved cases below.
[[record]]
smiles_string = "N#Cc1c(I)ccc(Oc2cc(F)cc(Cl)c2)c1Br"
reading = "> 1000 nM"

[[record]]
smiles_string = "CS(=O)(=O)c1ccc(OCC2CC(F)(F)C2)c2c1[C@H](O)C(F)(F)[C@@H]2F"
reading = "50 to 249 nM"


Lab note: next compound to report on.
Request body: readout IC50, system HIF-2α HIS TAG-PASB Domain (Homo sapiens), query CS(=O)(=O)c1ccc(Oc2cc(F)cc(C#N)c2)c2c1[C@H](O)C(F)(F)[C@H]2O . Return the value.
> 1000 nM

----------
# assay-system: HIF-2α HIS TAG-PASB Domain (Homo sapiens, UniProt Q99814)
# Construct: 100 nM HIF-2α HIS TAG-PASB Domain
# Sequence (Q99814 240-350 limits assumed): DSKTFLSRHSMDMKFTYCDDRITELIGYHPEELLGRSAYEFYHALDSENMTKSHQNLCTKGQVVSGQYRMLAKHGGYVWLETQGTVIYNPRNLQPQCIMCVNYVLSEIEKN
# experiment-notes: HIF-2α Scintillation Proximity Assay (SPA)
# Type: binding
# test-conditions: read-out: Scintillation Proximity Assay IC50
pIC50: −log10 of the molar value.
parameter: pIC50

[[record]]
compound = "O=S(=O)(c1ccc(C(O)CO)c2c1[C@H](O)C(F)(F)C2)C(F)(F)F (stereo partly shown) [Compound 533]"
reading = "< 6.00"

[[record]]
compound = "C[C@@H]1Cc2c(Oc3cc(F)cc(C#N)c3)ccc(S(C)(=O)=O)c2[C@@H]1O [Compound 301]"
reading = "< 6.00"

[[record]]
compound = "Cc1cc(C#N)cc(Oc2ccc(S(=O)(=O)CF)c3c2CC(F)(F)[C@H]3O)c1 [Compound 166]"
reading = "> 7.30"

[[record]]
compound = "CO[C@H]1c2c(S(C)(=O)=O)ccc(Oc3cc(F)cc(C#N)c3)c2CC1(F)F [Compound 210]"
reading = "< 6.00"

[[record]]
compound = "O=S(=O)(c1ccc(Oc2cc(F)cc(F)c2)c2c1C(O)C(F)(F)C2)C(F)F (stereo not shown) [Compound 9]"
reading = "> 7.30"


Provide the documented pIC50 with HIF-2α HIS TAG-PASB Domain (Homo sapiens, UniProt Q99814) as the system for O=C1CS(=O)(=O)c2ccc(Oc3cc(F)cc(F)c3)cc21 [Compound 417]
< 6.00

Recall the recorded pIC50 for N#Cc1cc(F)cc(Oc2ccc(S(=O)(=O)C3CCC3)c3c2CCC3O)c1 (stereo not shown) [Compound 208] with HIF-2α HIS TAG-PASB Domain (Homo sapiens, UniProt Q99814) and state it.
< 6.00

Under HIF-2α HIS TAG-PASB Domain (Homo sapiens, UniProt Q99814): pIC50 value of CS(=O)(=O)c1ccc(Oc2cncc(C#N)c2)c2c1[C@H](O)[C@H](F)[C@@H]2F [Compound 333] ?
6.60 to 7.30

Request - read-out pIC50 | tested on HIF-2α HIS TAG-PASB Domain (Homo sapiens, UniProt Q99814) | compound CS(=O)(=O)c1ccc(Oc2cc(F)cc(Cl)c2)c(C#N)c1 [Compound 139]
< 6.00

Which measured pIC50 belongs to O=S(=O)(c1ccc(Oc2ccc(F)c(Cl)c2)c2c1C(O)CC2)C(F)(F)F (stereo not shown) [Compound 218] , tested on HIF-2α HIS TAG-PASB Domain (Homo sapiens, UniProt Q99814)?
6.00 to 6.60

Give the reported pIC50 for O=S1(=O)c2ccc(Oc3cncc(Cl)c3)c(Br)c2[C@@H](O)C1(F)F [Compound 421] (system: HIF-2α HIS TAG-PASB Domain (Homo sapiens, UniProt Q99814)).
6.60 to 7.30

Lab note: need pIC50 with HIF-2α HIS TAG-PASB Domain (Homo sapiens, UniProt Q99814) for entry O=S(=O)(c1ccc(Nc2cc(F)cc(F)c2)c2c1C(O)CC2)C(F)(F)F (stereo not shown) [Compound 506] , please look it up.
6.00 to 6.60

Quick check: pIC50 on HIF-2α HIS TAG-PASB Domain (Homo sapiens, UniProt Q99814), item O=S(=O)(c1ccc(Oc2c(F)ccc3[nH]ncc23)c2c1C(O)C(F)(F)C2)C(F)(F)F (stereo not shown) [Compound 244] ?
6.00 to 6.60

Notebook entry, HIF-2α HIS TAG-PASB Domain (Homo sapiens, UniProt Q99814) assay: pIC50 of N#Cc1cncc(Oc2ccc3c(c2Br)[C@@H](O)CS3(=O)=O)c1 [Compound 420] = ?
< 6.00

Form field - read-out: pIC50; system: HIF-2α HIS TAG-PASB Domain (Homo sapiens, UniProt Q99814); submitted item: O=S(=O)(c1ccc(Cn2cncn2)c2c1[C@H](O)C(F)(F)C2)C(F)(F)F [Compound 534]
< 6.00

Could you share what pIC50 was measured for O=C(O)COc1ccc(S(=O)(=O)C(F)(F)F)c2c1CC(F)(F)C2O (stereo not shown) [Compound 633] , tested on HIF-2α HIS TAG-PASB Domain (Homo sapiens, UniProt Q99814)?
< 6.00

Record O[C@@H]1CCc2c(Oc3cc(F)cc(F)c3)ccc(C(F)(F)F)c21 [Compound 58] : what is its pIC50 with HIF-2α HIS TAG-PASB Domain (Homo sapiens, UniProt Q99814)?
> 7.30

Lab note: need pIC50 with HIF-2α HIS TAG-PASB Domain (Homo sapiens, UniProt Q99814) for entry CS(=O)(=O)c1ccc(OC[C@@H]2CC2(F)F)c2c1[C@H](O)C(F)(F)[C@@H]2F [Compound 768] , please look it up.
6.60 to 7.30

I'm curious: which pIC50 was measured for O=S(=O)(c1ccc(N2CCOCC2)c2c1[C@H](O)C(F)(F)C2)C(F)(F)F [Compound 490] tested on HIF-2α HIS TAG-PASB Domain (Homo sapiens, UniProt Q99814)?
< 6.00

Request - read-out pIC50 | tested on HIF-2α HIS TAG-PASB Domain (Homo sapiens, UniProt Q99814) | compound CS(=O)(=O)c1ccc(O[C@H]2C[C@H](O)C2)c2c1[C@H](O)C(F)(F)[C@@H]2F [Compound 738]
< 6.00

What reported pIC50 corresponds to N#Cc1cc(F)cc(Nc2ccc(S(=O)(=O)C(F)(F)F)c3c2CCC3O)c1 (stereo not shown) [Compound 505] on HIF-2α HIS TAG-PASB Domain (Homo sapiens, UniProt Q99814)?
6.00 to 6.60

Give pIC50 (HIF-2α HIS TAG-PASB Domain (Homo sapiens, UniProt Q99814)) of the following compound: N=S1(=O)c2ccc(Oc3cc(F)cc(F)c3)c(C(F)F)c2C(O)C1(F)F (stereo not shown) [Compound 399]
6.60 to 7.30
